test: Inhibition of Abeta (1-42) assessed as blockade of amyloid-like aggregates at 100 uM by Congo red binding assay
Calls of active or inactive are those of the source. No cut-off for these calls is given here. Non-standard residues stand in square brackets, D forms with d. Residues, ends and D or L forms follow the SMILES beside them. NMeI = CC[C@H](C)[C@H](NC)C(=O)O; NMeL = CN[C@@H](CC(C)C)C(=O)O; NMeV = CN[C@H](C(=O)O)C(C)C; Sar = CNCC(=O)O
quantity: Activity

{"columns": ["compound", "quantity", "value-observed"],
 "data": [
  ["CC[C@H](C)[C@H](NC(C)=O)C(=O)NCC(=O)N[C@@H](CC(C)C)C(=O)N[C@@H](CCSC)C(=O)N[C@H](C(=O)NCC(N)=O)C(C)C (Ac-IGLMVG-NH2)", "Activity", "inactive"],
  ["CC[C@H](C)[C@H](NC(C)=O)C(=O)N(C)CC(=O)N[C@@H](CC(C)C)C(=O)N[C@@H](CCSC)C(=O)N[C@H](C(=O)N(C)CC(N)=O)C(C)C (Ac-I[Sar]LMV[Sar]-NH2)", "Activity", "inactive"],
  ["CC[C@H](C)[C@@H](C(=O)NCC(=O)N(C)[C@@H](CC(C)C)C(=O)N[C@@H](CCSC)C(=O)N(C)[C@H](C(=O)NCC(N)=O)C(C)C)N(C)C(C)=O (Ac-[NMeI]G[NMeL]M[NMeV]G-NH2)", "Activity", "inactive"]
]}
